The reported numbers originate from patent US20050245508A1.

system: CCL64 mink lung epithelial cells; assay: CCL64 TGF-β bioassay (growth, crystal violet); format: cell-based; conditions: TGF-β1 or TGF-β2 10 ng/ml, 72 h, FIG. 1A; read-out: EC50 of rescue of TGF-β-mediated inhibition of growth
observed property: EC50

Query: Give the measured EC50 of Fc1ccc(Cl)cc1-c1nc(Nc2ccncc2)c2nccnc2n1 .
Reply: ~30 nM
